Assay: Human HepG2 cell viability assay in 384 well format
Assay type: toxicity, cell-based
Set-up: dose 125 nL, time 70.5 hour; concentration not given beside the values
Conditions: HepG2 cells, read-out: Inhibition
attributeMeasured: cytotoxicity at 70.5 h (%)
# output: bare number, implied unit %

Notebook: Cc1nc(CN2CCC3(CCCN(Cc4cnn(C)c4)C3)C2=O)cs1 (stereo not drawn) , cytotoxicity at 70.5 h read as 0.731

Further cases:
Notebook: Cc1nc(N2CCN(C(=O)c3ccncc3)CC2)c2c(n1)c(C)nn2C , cytotoxicity at 70.5 h read as 19.4

Notebook: CNC(=O)C1CCCCN1C(=O)CCn1cnc2sccc2c1=O (stereo not drawn) , cytotoxicity at 70.5 h read as -1.4

Notebook: OCCN1CCCC(c2cccc(-c3ccccc3F)n2)C1 (stereo not drawn) , cytotoxicity at 70.5 h read as -5.22

Notebook: CCOCCc1nc(CCc2ccccc2)n[nH]1 , cytotoxicity at 70.5 h read as -6.03

Notebook: CCc1ccsc1CNC(=O)CNC(=O)C(C)(C)C , cytotoxicity at 70.5 h read as -7.92

---

Catalogue of cytotoxicity at 70.5 h readings, one per entry.
Assay: Human HepG2 cell viability assay in 384 well format
Assay type: toxicity, cell-based
Parameters: dose 125 nL, time 70.5 hour; concentration not given beside the values
Settings: HepG2 cells, read-out: Inhibition
Please answer using a numeric value trailed by its unit.

Use these answered entries as a reference point.
Notebook: O=C(c1ccco1)N1CC[C@@H]2CN(C3CCOCC3)CCO[C@@H]2C1 , cytotoxicity at 70.5 h read as 0.698%

Notebook: CCc1nc(CN(CCc2ccccc2)C2CCN(C)CC2)no1 , cytotoxicity at 70.5 h read as -9.81%

Notebook: O=C(Cc1cccs1)NC1CCN(c2cccc(F)c2)CC1 , cytotoxicity at 70.5 h read as 1.18%

Notebook: CC(C)c1nc(CN2CCC(c3ccnn3CCO)CC2)no1 , cytotoxicity at 70.5 h read as 19.5%

Notebook: CCOCC(=O)NCc1cc(C2CC2)n(C2CCCC2)n1 , cytotoxicity at 70.5 h read as 0.0223%

Further cases:
Notebook: Cc1noc(-c2ccc(Oc3cccc(CN4CCCC4)c3F)nc2)n1 , cytotoxicity at 70.5 h read as 16.7%

---

Test: Human HepG2 cell viability assay in 384 well format
Type: toxicity, cell-based
Design: dose 125 nL, time 70.5 hour; concentration not given beside the values
Settings: HepG2 cells, read-out: Inhibition
attributeMeasured: cytotoxicity at 70.5 h (%)
# output: bare number, implied unit %

Use these answered entries as a reference point.
Notebook: Cn1c2ncccc2c(=O)n1CC(=O)NCCc1c(F)cccc1F , cytotoxicity at 70.5 h read as -7.19

Notebook: CCN(CC)S(=O)(=O)N1CCCC1c1cccc(Nc2ncc(C)s2)n1 (stereo unspecified) , cytotoxicity at 70.5 h read as -11.3

Notebook: CC(C)N1C(=O)CC(N2CCN(c3ccc(F)cc3)CC2)C1=O (stereo unspecified) , cytotoxicity at 70.5 h read as 6.65

Notebook: C[C@@H]1C[C@H]2CN(C(=O)c3cccc4c3OCCO4)C[C@H]2O1 , cytotoxicity at 70.5 h read as -8.32

Notebook: Cc1nc2cc(C(=O)N3CCCC(n4cncn4)C3)ccc2n1C (stereo unspecified) , cytotoxicity at 70.5 h read as 22.7

Further cases:
Notebook: CCn1ccnc1CN1CCN(CC(=O)NC(C2CC2)C2CC2)CC1 , cytotoxicity at 70.5 h read as 16.4

---

Catalogue of cytotoxicity at 70.5 h readings, one per entry.
Assay: Human HepG2 cell viability assay in 384 well format
Format: toxicity, cell-based
Design: dose 125 nL, time 70.5 hour; concentration not given beside the values
Settings: HepG2 cells, read-out: Inhibition
# output: bare number, implied unit %

Use these answered entries as a reference point.
Notebook: Cc1cccc(CN2CCCC3(CCN(C4CCSCC4)C3)C2=O)c1 (stereo not drawn) , cytotoxicity at 70.5 h read as 7.94

Notebook: Cc1noc(C)c1CN1CCN(Cc2nccn2C)CC1 , cytotoxicity at 70.5 h read as -4.67

Notebook: O=C(C1CCOCC1)N1C[C@H]2CCC[C@@]2(COc2ccccn2)C1 , cytotoxicity at 70.5 h read as -11.3

Notebook: O=C1CN(C(=O)CNC(CC(F)(F)F)c2ccc(F)cc2)CCN1 (stereo not drawn) , cytotoxicity at 70.5 h read as -55.7

Notebook: c1cnc2c(c1)nc1n2[C@@H](CNCc2nccs2)COC1 , cytotoxicity at 70.5 h read as -8.24

Further cases:
Notebook: Cc1cc2ccccc2n1CC(=O)NC(C)C(=O)N1CCOCC1 (stereo not drawn) , cytotoxicity at 70.5 h read as -8.04

---

Catalogue of cytotoxicity at 70.5 h readings, one per entry.
Assay: Human HepG2 cell viability assay in 384 well format
Format: toxicity, cell-based
Parameters: dose 125 nL, time 70.5 hour; concentration not given beside the values
Settings: HepG2 cells, read-out: Inhibition
# output: bare number, implied unit %

Use these answered entries as a reference point.
Notebook: O=C(CC1CCc2ccccc21)NCCSc1ccccn1 (stereo not drawn) , cytotoxicity at 70.5 h read as 11.8

Notebook: O=C1CO[C@@H]2CN(C3CCOCC3)C[C@H]2N1Cc1ccncc1 , cytotoxicity at 70.5 h read as 4.06

Notebook: Cc1cc(C(=O)NCCC2CCN(C)CC2)ccc1N(C)S(C)(=O)=O , cytotoxicity at 70.5 h read as -10.7

Notebook: COCCN1CCC2(CC1)CC(N1CCOCC1)c1ccc(C)cc12 (stereo not drawn) , cytotoxicity at 70.5 h read as -8.53

Notebook: Cn1c(=O)[nH]c(=O)n2c(CC(=O)Nc3c(Cl)cccc3Cl)cnc12 , cytotoxicity at 70.5 h read as -14.2

Further cases:
Notebook: CCCC(C)NCc1cnc(-c2cccc(C)c2)nc1 (stereo not drawn) , cytotoxicity at 70.5 h read as 1.72

Notebook: CC(C)N(C)[C@@H]1CCN(S(C)(=O)=O)[C@H]1Cc1ccccc1 , cytotoxicity at 70.5 h read as -3.3

Notebook: COc1ncc(NCc2ccc(F)cc2)cc1C(N)=O , cytotoxicity at 70.5 h read as -6.54

Notebook: COCCN1CCC(c2nc3c([nH]2)CC(C)(C)CNC3=O)CC1 , cytotoxicity at 70.5 h read as -4.63

Notebook: CNC(=O)c1ccc(C2CN(c3cc(C)nc(N)n3)CCO2)nc1 (stereo not drawn) , cytotoxicity at 70.5 h read as 20

Notebook: COc1ccc(CNC(=O)NC2CCN(CC3CCCC3)CC2)cn1 , cytotoxicity at 70.5 h read as -9.34

Notebook: COc1cc(-c2noc(C(CC(C)C)N3CCCCC3=O)n2)ccn1 (stereo not drawn) , cytotoxicity at 70.5 h read as -2.9

Notebook: c1ccc(-c2cc(CN3CCC(c4ccn[nH]4)CC3)on2)cc1 , cytotoxicity at 70.5 h read as -7.56

---

Assay: Human HepG2 cell viability assay in 384 well format
Format: toxicity, cell-based
Design: dose 125 nL, time 70.5 hour; concentration not given beside the values
Settings: HepG2 cells, read-out: Inhibition
Catalogue of cytotoxicity at 70.5 h readings, one per entry.
# output: bare number, implied unit %

Notebook: O=C(CCC1CCCC1)N1C[C@H]2CC[C@@H]1CN(Cc1ccncc1)C2 , cytotoxicity at 70.5 h read as -11.9

Notebook: CCc1nc2n(n1)CC(Nc1ccnc(-c3ccccc3)n1)CC2 (stereo not drawn) , cytotoxicity at 70.5 h read as -3.97

Notebook: CC(NC1(CNC(=O)CC2CCCC2)CCOCC1)c1ccccc1 (stereo not drawn) , cytotoxicity at 70.5 h read as -6.24

Notebook: Cc1nnc(SCc2cccc(F)c2)n1CC(N)=O , cytotoxicity at 70.5 h read as -125

Notebook: CS(=O)(=O)c1ccc(CN2C[C@H]3CC[C@@H]2CN(c2ncccn2)C3)cc1 , cytotoxicity at 70.5 h read as -5.94

Further cases:
Notebook: CN1CCN(CC[C@@H]2CC[C@H](O)[C@@H](C(=O)Nc3ccccc3)O2)CC1 , cytotoxicity at 70.5 h read as 1.15

---

Assay: Human HepG2 cell viability assay in 384 well format
Type: toxicity, cell-based
Design: dose 125 nL, time 70.5 hour; concentration not given beside the values
Conditions: HepG2 cells, read-out: Inhibition
attributeMeasured: cytotoxicity at 70.5 h (%)
# output: bare number, implied unit %

Notebook: CNc1cc(C2CCCN2Cc2ccccc2OCC(=O)O)ccn1 (stereo not drawn) , cytotoxicity at 70.5 h read as -5.11

Notebook: N#Cc1cc2c(=O)n(CC(O)Cc3ccccc3)ccc2[nH]c1=O (stereo not drawn) , cytotoxicity at 70.5 h read as -13.6

Notebook: COc1ccc2c(c1)CN(C)C(=O)CCN2CC(O)C(F)(F)F (stereo not drawn) , cytotoxicity at 70.5 h read as 11.9

Notebook: CN(C)C(=O)CS(=O)(=O)Cc1cc(Cl)c2c(c1)OCO2 , cytotoxicity at 70.5 h read as -2.34

Notebook: CN(CCc1ccccn1)[C@@H]1CCN(c2cccc(C#N)n2)C[C@H]1O , cytotoxicity at 70.5 h read as 0.836

Further cases:
Notebook: CCC(NCc1ncc[nH]1)c1nc(C(F)(F)F)cs1 (stereo not drawn) , cytotoxicity at 70.5 h read as -4.3

Notebook: COc1cc(C(C)NCc2ncccc2C)ccc1SC(F)F (stereo not drawn) , cytotoxicity at 70.5 h read as 52.4

Values compiled from ChEMBL document CHEMBL3507680.
